src = the supplement of paper PMC10126150

# Test system: ATP;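 note: ATP exposure 15 min at 22 °C before imaging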
# Protocol Text: switch fluorescence ratio, 500 uM ATP over buffer (Cy3 cluster intensity, sum of 5 cycles each) (fold (ratio)); higher = stronger signal-on switching upon ATP binding; sequences stand for … in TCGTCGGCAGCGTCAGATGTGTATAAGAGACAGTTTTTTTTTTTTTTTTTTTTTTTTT…TC
# Experimental Parameters: aptamer strand: ATP DNA aptamer (quencher-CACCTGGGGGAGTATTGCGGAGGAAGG + anchor), 100 nM annealed; ATP concentration: 500 uM
switch fluorescence ratio values for the sequences below.
Reply: number alone, nothing else.

The sequence listed as ACAAGGAATG shows switch fluorescence ratio equal to 0.997

The sequence listed as GTTGGGGCCT shows switch fluorescence ratio equal to 1.03

The sequence listed as CTAGTCAGGT shows switch fluorescence ratio equal to 1.02

The sequence listed as GAGCTATTCT shows switch fluorescence ratio equal to 1.08

The sequence listed as TCAAGGGTGA shows switch fluorescence ratio equal to 1.03

Further cases:
The sequence listed as TGATGCCGCT shows switch fluorescence ratio equal to 1.07

The sequence listed as TTTCTTAGGT shows switch fluorescence ratio equal to 1.03
